# TEST_TARGET: gEgI WT: HSV2 gEgI heterodimer comprising gE and gI wildtype ectodomains (HSV2, UniProt P89475 21-416; P06764 21-256)
# ASSAY_EXPLANATION: SPR binning; gEgI captured by mAb 39
OBSERVED_PROPERTY: RU (RU)

>>> recorded_number("mAb clone 40 (antibody, V domains shown) VH: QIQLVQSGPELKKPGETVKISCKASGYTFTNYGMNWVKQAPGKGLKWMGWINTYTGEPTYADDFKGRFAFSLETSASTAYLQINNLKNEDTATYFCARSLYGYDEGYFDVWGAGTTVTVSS VL: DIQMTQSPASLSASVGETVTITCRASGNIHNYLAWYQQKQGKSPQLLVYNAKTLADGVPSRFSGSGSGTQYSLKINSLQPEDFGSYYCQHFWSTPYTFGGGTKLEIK")
9
>>> recorded_number("mAb clone 20 (antibody, V domains shown) VH: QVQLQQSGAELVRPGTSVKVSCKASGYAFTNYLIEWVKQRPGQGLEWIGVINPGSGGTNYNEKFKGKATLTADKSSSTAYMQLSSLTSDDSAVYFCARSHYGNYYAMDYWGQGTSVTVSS VL: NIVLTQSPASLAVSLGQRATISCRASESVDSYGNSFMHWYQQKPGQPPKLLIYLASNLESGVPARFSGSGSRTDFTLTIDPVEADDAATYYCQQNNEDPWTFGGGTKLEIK")
23.8
